# assay-summary: in vivo
# experimental-context: mouse, plasma, iv, 40 nmol/kg, Vz, mouse plasma, intravenous 40 nmol/kg

- smiles-notation: "CCCCCC(=O)N[C@H]1CSCc2cc(CSCCNC(=O)CN3CCN(CC(=O)O)CCN(CC(=O)O)CCN(CC(=O)O)CC3)cc(c2)CSC[C@@H](C(=O)O)NC(=O)[C@H](Cc2ccccc2)NC(=O)[C@H](CCC(N)=O)NC(=O)[C@H]([C@@H](C)O)NC(=O)[C@@H]2CCCN2C(=O)[C@@H]2CCCN2C1=O"
  Vd (L/kg): 1.02

###

# assay-summary: in vivo
# experimental-context: mouse, plasma, iv, 40 nmol/kg
metric: C0 (nM)

- compound: "CCCCCC(=O)N[C@H]1CSCc2cc(CSCCNC(=O)CN3CCN(CC(=O)O)CCN(CC(=O)O)CCN(CC(=O)O)CC3)cc(c2)CSC[C@@H](C(=O)O)NC(=O)[C@H](Cc2ccccc2)NC(=O)[C@H](CCC(N)=O)NC(=O)[C@H]([C@@H](C)O)NC(=O)[C@@H]2CCCN2C(=O)[C@@H]2CCCN2C1=O [Compound 3BP-3554]"
  recorded-measurement: 177

###

# assay-summary: in vivo
# experimental-context: mouse, plasma, iv, 4 nmol/kg, Vz, mouse plasma, intravenous 4 nmol/kg
metric: Vd (L/kg)

- molecule: "CCCCCC(=O)N[C@H]1CSCc2cc(CSCCNC(=O)CN3CCN(CC(=O)O)CCN(CC(=O)O)CCN(CC(=O)O)CC3)cc(c2)CSC[C@@H](C(=O)O)NC(=O)[C@H](Cc2ccccc2)NC(=O)[C@H](CCC(N)=O)NC(=O)[C@H]([C@@H](C)O)NC(=O)[C@@H]2CCCN2C(=O)[C@@H]2CCCN2C1=O [Compound 3BP-3554]"
  units: "L/kg"
  recorded-measurement: 0.26

###

# assay-summary: in vivo
# experimental-context: mouse, plasma, iv, 400 nmol/kg

- smiles-notation: "CCCCCC(=O)N[C@H]1CSCc2cc(CSCCNC(=O)CN3CCN(CC(=O)O)CCN(CC(=O)O)CCN(CC(=O)O)CC3)cc(c2)CSC[C@@H](C(=O)O)NC(=O)[C@H](Cc2ccccc2)NC(=O)[C@H](CCC(N)=O)NC(=O)[C@H]([C@@H](C)O)NC(=O)[C@@H]2CCCN2C(=O)[C@@H]2CCCN2C1=O"
  AUC(0-inf), µM·h: 0.961

###

# assay-summary: in vivo
# experimental-context: mouse, in vivo, iv, 4 nmol/kg

- smiles-notation: "CCCCCC(=O)N[C@H]1CSCc2cc(CSCCNC(=O)CN3CCN(CC(=O)O)CCN(CC(=O)O)CCN(CC(=O)O)CC3)cc(c2)CSC[C@@H](C(=O)O)NC(=O)[C@H](Cc2ccccc2)NC(=O)[C@H](CCC(N)=O)NC(=O)[C@H]([C@@H](C)O)NC(=O)[C@@H]2CCCN2C(=O)[C@@H]2CCCN2C1=O"
  units: "mL/min/kg"
  clearance: 8.03

###

# system-under-test: alpha 1A (h) (Homo sapiens)
# Sequence (P35348 1-466): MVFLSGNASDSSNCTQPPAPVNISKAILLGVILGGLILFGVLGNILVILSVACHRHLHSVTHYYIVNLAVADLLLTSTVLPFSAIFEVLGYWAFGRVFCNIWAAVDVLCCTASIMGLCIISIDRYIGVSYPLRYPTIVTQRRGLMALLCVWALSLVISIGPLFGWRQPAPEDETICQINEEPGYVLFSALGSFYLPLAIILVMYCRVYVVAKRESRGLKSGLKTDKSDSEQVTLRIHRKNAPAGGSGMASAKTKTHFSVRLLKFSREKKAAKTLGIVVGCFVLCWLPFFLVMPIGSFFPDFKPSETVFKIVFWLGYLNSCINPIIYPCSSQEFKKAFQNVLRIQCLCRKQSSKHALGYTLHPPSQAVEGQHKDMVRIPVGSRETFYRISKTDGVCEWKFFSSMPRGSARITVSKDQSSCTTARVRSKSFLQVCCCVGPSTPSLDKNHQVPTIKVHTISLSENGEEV
pKi: −log10 of the molar value.
metric: pKi

- compound: "COc1cccc(OC)c1OCCNCC1COc2ccccc2O1 (stereo not shown)"
  metric: "pKi"
  recorded-measurement: 9.62
